Field: TP. Provide a value for each of the compounds that follow.
Organism: Rattus norvegicus
Assay text: Open TG-GATES - Regimen: Daily Repeat
Format: toxicity, organism-based, Sprague-Dawley
Set-up: regimen Daily Repeat, gender Male, age 6 weeks
Protocol conditions: in vivo, po, 300 mg/kg, […], tissue Plasma, route gavage, dose level Middle, time 14 day
A number alone suffices; assume g/dL.

TP for O=C(N[C@H](CO)[C@H](O)c1ccc([N+](=O)[O-])cc1)C(Cl)Cl is 5.8

TP for CC(C)(S)[C@@H](N)C(=O)O is 6

TP for O=C(O)c1cccnc1 is 5.8

TP for CCN1CCCC1CNC(=O)c1cc(S(N)(=O)=O)ccc1OC (centres undefined) [SULPIRIDE] is 5.8
